# protocol-description: log P by HPLC on reversed phase columns (Method L0; [a] acidic, [b] neutral range)
property-label: chromatographic logP

compound="Cc1nn2c(C3CC3)c(C(=O)N[C@H]3CCc4ccccc43)cnc2c1-c1cccc(F)c1 [Example 353]" result=3.95
compound="Cc1nn2c(C(C)C)c(C(=O)N[C@H]3CCc4ccccc43)cnc2c1-c1cccc(Cl)n1 [Example 183]" result=5.1
compound="Cc1nn2c(C(C)C)c(C(=O)N[C@H]3CCOc4ccccc43)cnc2c1-c1cccc(F)c1 [Example 396]" result=4.45
compound="Cc1nn2c(C(C)C)c(C(=O)N[C@H]3CCOc4ccccc43)cnc2c1-c1c(F)ccc(Cl)c1F [Example 255]" result=4.72
compound="Cc1nn2c(C(C)C)c(C(=O)N[C@H]3CCCc4ccccc43)cnc2c1-c1cccc(Cl)c1 [Example 45]" result=5.51
compound="Cc1nn2c(C(C)C)c(C(=O)N[C@H]3CCCc4ccccc43)cnc2c1-c1cc(F)ccc1F [Example 115]" result=4.89
compound="COc1cc(-c2c(C)nn3c(C(C)C)c(C(=O)N[C@H]4CCOc5ccccc54)cnc23)cc(C(F)(F)F)c1 [Example 391]" result=5.13
compound="COCc1cccc(-c2c(C)nn3c(C4CC4)c(C(=O)N[C@H]4CCOc5ccccc54)cnc23)c1 [Example 451]" result=3.43

###

# measurement-target: C. elegans Slo-1a (Caenorhabditis elegans, UniProt Q95V25)
# Sequence (Q95V25 whole entry): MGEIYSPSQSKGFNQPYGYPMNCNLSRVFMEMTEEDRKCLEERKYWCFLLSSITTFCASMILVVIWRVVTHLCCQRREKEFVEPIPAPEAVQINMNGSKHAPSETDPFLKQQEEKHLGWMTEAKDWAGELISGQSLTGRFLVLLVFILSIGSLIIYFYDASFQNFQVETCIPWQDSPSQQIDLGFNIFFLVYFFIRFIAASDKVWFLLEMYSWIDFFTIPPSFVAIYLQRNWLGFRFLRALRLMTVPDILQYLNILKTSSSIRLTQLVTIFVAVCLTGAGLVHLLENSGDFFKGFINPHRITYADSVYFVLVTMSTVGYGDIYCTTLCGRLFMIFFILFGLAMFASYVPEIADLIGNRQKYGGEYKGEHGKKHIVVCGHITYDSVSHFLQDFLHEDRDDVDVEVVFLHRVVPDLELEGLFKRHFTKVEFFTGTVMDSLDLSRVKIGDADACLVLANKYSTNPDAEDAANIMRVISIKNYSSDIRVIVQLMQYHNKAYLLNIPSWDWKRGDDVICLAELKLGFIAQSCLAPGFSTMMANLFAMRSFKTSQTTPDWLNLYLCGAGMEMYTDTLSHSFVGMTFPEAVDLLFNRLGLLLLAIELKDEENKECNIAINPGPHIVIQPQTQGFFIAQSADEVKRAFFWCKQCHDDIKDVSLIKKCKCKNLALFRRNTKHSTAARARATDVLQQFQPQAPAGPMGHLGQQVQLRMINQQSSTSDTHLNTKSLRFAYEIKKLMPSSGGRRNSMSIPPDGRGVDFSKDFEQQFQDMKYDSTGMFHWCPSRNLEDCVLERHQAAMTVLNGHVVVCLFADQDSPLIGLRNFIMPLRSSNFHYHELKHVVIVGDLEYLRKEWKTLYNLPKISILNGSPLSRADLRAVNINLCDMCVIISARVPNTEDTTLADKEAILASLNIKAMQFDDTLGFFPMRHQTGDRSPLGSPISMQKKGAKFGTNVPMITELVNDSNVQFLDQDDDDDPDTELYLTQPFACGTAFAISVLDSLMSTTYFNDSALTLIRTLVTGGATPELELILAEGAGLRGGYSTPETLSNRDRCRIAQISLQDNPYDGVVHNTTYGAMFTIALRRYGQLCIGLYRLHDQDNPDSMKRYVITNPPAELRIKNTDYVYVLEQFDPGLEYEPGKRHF
# protocol-description: In vitro assay 1: C. elegans Slo-1a, action at a recombinant C. elegans CHO cell line (membrane potential measurement)
pEC50: −log10 of the molar value.
Listed below: pEC50 values for each entry.
property-label: pEC50

molecule="Cc1nn2c(C(C)C)c(C(=O)N[C@H]3CCOc4ccccc43)cnc2c1-c1ncc(Cl)cc1Cl [Example 208]" property_label=pEC50 numeric_result=8.80
molecule="Cc1nn2c(C(C)C)c(C(=O)N[C@H]3CCc4ccccc43)cnc2c1-c1ccc(Cl)nc1 [Example 295]" property_label=pEC50 numeric_result=7.20
molecule="Cc1nn2c(C(C)C)c(C(=O)N[C@H]3CCCc4ccccc43)cnc2c1-c1ccccc1F [Example 94]" property_label=pEC50 numeric_result=7.80
molecule="Cc1nn2c(C(C)C)c(C(=O)N[C@H]3CCOc4ccccc43)cnc2c1-c1cccc(OC(F)(F)F)c1 [Example 394]" property_label=pEC50 numeric_result=7.80
molecule="Cc1nn2c(C(C)C)c(C(=O)N[C@H]3CCc4ccccc43)cnc2c1-c1c(F)cccc1F [Example 99]" property_label=pEC50 numeric_result=8.00
molecule="Cc1nn2c(C(C)C)c(C(=O)N[C@H]3CCOc4ccccc43)cnc2c1-c1c(F)ccc(Cl)c1F [Example 255]" property_label=pEC50 numeric_result=8.80
molecule="Cc1nn2c(C(C)C)c(C(=O)N[C@H]3CCOc4ccccc43)cnc2c1-c1cccc(N2CC(C#N)C2)c1 [Example 444]" property_label=pEC50 numeric_result=7.80
molecule="Cc1nn2c(C(C)C)c(C(=O)N[C@H]3CCc4ccccc43)cnc2c1-c1c(Cl)cccc1Cl [Example 223]" property_label=pEC50 numeric_result=7.90
molecule="Cc1nn2c(C(C)C)c(C(=O)N[C@H]3CCc4ccccc43)cnc2c1-c1cccc(N2CCCC2)c1 [Example 329]" property_label=pEC50 numeric_result=7.60
molecule="Cc1nn2c(C(C)C)c(C(=O)N[C@H]3CCCc4ccccc43)cnc2c1-c1cc(Cl)cc(Cl)c1 [Example 7]" property_label=pEC50 numeric_result=7.70
molecule="Cc1nn2c(C3CC3)c(C(=O)N[C@H]3CCOc4ccccc43)cnc2c1-c1cc(F)cc(F)c1 [Example 537]" property_label=pEC50 numeric_result=8.30
molecule="Cc1nn2c(C(C)C)c(C(=O)NC3CCc4ccccc43)cnc2c1-c1cccc(C(F)(F)F)c1 (stereo not drawn) [Example 1]" property_label=pEC50 numeric_result=7.40
molecule="Cc1nn2c(C(C)C)c(C(=O)N[C@H]3CCOc4ccccc43)cnc2c1-c1cc(F)c(F)c(F)c1 [Example 185]" property_label=pEC50 numeric_result=7.90
molecule="CC(C)c1c(C(=O)N[C@H]2CCOc3ccccc32)cnc2c(-c3cc(Cl)c(F)c(Cl)c3)c(C(F)(F)F)nn12 [Example 197]" property_label=pEC50 numeric_result=6.30
molecule="CC(C)c1c(C(=O)N[C@H]2CCc3ccccc32)cnc2c(-c3c(F)cccc3F)c(C(F)(F)F)nn12 [Example 135]" property_label=pEC50 numeric_result=6.90
molecule="Cc1nn2c(C(C)C)c(C(=O)N[C@H]3CCCc4ccccc43)cnc2c1-c1ccc(Cl)cc1Cl [Example 182]" property_label=pEC50 numeric_result=7.90
molecule="Cc1nn2c(C(C)C)c(C(=O)N[C@H]3CCCc4ccccc43)cnc2c1-c1ccc(C(C)C)cc1 [Example 126]" property_label=pEC50 numeric_result=6.70
molecule="COc1cc(-c2c(C)nn3c(C(C)C)c(C(=O)N[C@H]4CCc5ccccc54)cnc23)cc(C(F)(F)F)c1 [Example 312]" property_label=pEC50 numeric_result=7.60
molecule="Cc1nn2c(C(C)C)c(C(=O)N[C@H]3CCOc4ccccc43)cnc2c1-c1cc(Cl)cc(Cl)c1 [Example 152]" property_label=pEC50 numeric_result=7.70
molecule="Cc1nn2c(C3CC3)c(C(=O)N[C@H]3CCc4ccccc43)cnc2c1-c1c(F)ccc(Cl)c1F [Example 436]" property_label=pEC50 numeric_result=8.80
molecule="CCOc1ccc(-c2c(C)nn3c(C(C)C)c(C(=O)N[C@H]4CCc5ccccc54)cnc23)cc1 [Example 339]" property_label=pEC50 numeric_result=5.60
molecule="CC(C)c1c(C(=O)N[C@H]2CCc3ccccc32)cnc2c(-c3cccc(F)c3)c(C(F)(F)F)nn12 [Example 157]" property_label=pEC50 numeric_result=7.00
molecule="Cc1nn2c(C(C)C)c(C(=O)N[C@H]3CCc4ccccc43)cnc2c1-c1cc(F)cc(C(F)(F)F)c1 [Example 292]" property_label=pEC50 numeric_result=7.40
molecule="Cc1nn2c(C(C)C)c(C(=O)N[C@H]3CCOc4ccccc43)cnc2c1-c1ccc(F)c2c1OCO2 [Example 263]" property_label=pEC50 numeric_result=8.80
molecule="Cc1nn2c(C(C)C)c(C(=O)N[C@H]3CCc4ccccc43)cnc2c1-c1cccc(OCC2CC2)c1 [Example 319]" property_label=pEC50 numeric_result=7.60
molecule="Cc1nn2c(C(C)C)c(C(=O)N[C@H]3CCc4ccccc43)cnc2c1-c1ccccc1F [Example 95]" property_label=pEC50 numeric_result=8.20
molecule="Cc1nn2c(C3CC3)c(C(=O)N[C@H]3CCOc4ccccc43)cnc2c1-c1cc(Cl)cc(C(F)(F)F)c1 [Example 465]" property_label=pEC50 numeric_result=8.00
molecule="Cc1nn2c(C(C)C)c(C(=O)N[C@H]3CCCc4ccccc43)cnc2c1-c1cccc(OC(F)(F)F)c1 [Example 345]" property_label=pEC50 numeric_result=7.90
molecule="Cc1nn2c(C(C)C)c(C(=O)N[C@H]3CCc4ccccc43)cnc2c1-c1ccncc1 [Example 318]" property_label=pEC50 numeric_result=6.00
molecule="Cc1nn2c(C(C)C)c(C(=O)N[C@H]3CCc4ccccc43)cnc2c1-c1ncc(Cl)cc1Cl [Example 209]" property_label=pEC50 numeric_result=8.90

Entry source: patent US11001590B2
